test system: Human alphaherpesvirus 1; assay: In vitro therapeutic index as ratio of cytotoxicity to inhibition of viral replication; format: organism-based; conditions: human alphaherpesvirus 1, in vitro; read-out: Therapeutic index
Sorting guide: entries reporting selectivity ratio beneath 4 go in the true pile, the rest go in the false pile.

Illustrative cases are given below, each with its answer.
>  <compound>
Cc1cc(Cl)c2ccc(N(C)C)cc2n1

>  <target.desc>
Human alphaherpesvirus 1

>  <assigned.category>
true

$$$$
>  <compound>
Cc1cnc2cc(N(C)C)ccc2c1

>  <target.desc>
Human alphaherpesvirus 1

>  <assigned.category>
false

$$$$
>  <compound>
CCN(CC)CCCC(C)Nc1ccnc2cc(Cl)ccc12 (stereo not drawn)

>  <target.desc>
Human alphaherpesvirus 1

>  <assigned.category>
true

$$$$

Enquiry: Does CNc1cc(C)nc2cc(N(C)C)ccc12 have selectivity ratio strictly under 4?
Return: true

Enquiry: Does Cc1c(Cl)nc2cc(N(C)C)ccc2c1Cl have selectivity ratio strictly under 4?
Return: true

Enquiry: Say whether its selectivity ratio is strictly beneath 4. Entry: Cc1cc(N(C)C)c2ccc(N(C)C)cc2n1
Return: true

Enquiry: Consider the compound CC(=O)Nc1ccc2c(C)cc(N)nc2c1 . Is its selectivity ratio strictly less than 4?
Return: true

Enquiry: Quick check: selectivity ratio of CC(=O)Nc1ccc2c(C)ccnc2c1 under 4?
Return: false

Enquiry: Consider O=C(O)P(=O)(O)O . Does its selectivity ratio lie strictly below 4?
Return: false

Enquiry: Lab note: selectivity ratio threshold 4. Does this compound come in strictly under it? CN(C)c1ccc2ccc(N(C)C)nc2c1
Return: true

Enquiry: Does the reported selectivity ratio of CN(C)c1ccc2ccc(N)cc2n1 stay below 4?
Return: true

Enquiry: I wonder whether CNc1ccc2ccc(N(C)C)cc2n1 has selectivity ratio below 4. Can you tell?
Return: true

Enquiry: # TODO verify selectivity ratio < 4 strictly for this compound: CN(C)c1ccc2ccc(O)nc2c1
Return: false

Enquiry: I'd appreciate it if you could check whether Cc1ccnc2cc(N)ccc12 has selectivity ratio smaller than 4.
Return: true

Enquiry: Below 4 on selectivity ratio? Entry Cc1cc(Cl)nc2cc(N)ccc12
Return: true

Enquiry: Hi there! Is selectivity ratio for Cc1cc(O)c2ccc(N(C)C)cc2n1 below 4, do you know?
Return: false

Enquiry: Input CN(C)c1ccc2ccc(N)nc2c1 ; condition: selectivity ratio strictly below 4. Does it hold?
Return: false

Enquiry: Item Nc1ncnc2c1ncn2[C@@H]1O[C@H](CO)[C@@H](O)[C@@H]1O : selectivity ratio beneath 4, strictly?
Return: false

Enquiry: Does this compound meet the criterion selectivity ratio < 4? Cc1c(O)nc2cc(N(C)C)ccc2c1O
Return: true

Enquiry: Just wondering, is selectivity ratio of Cc1ccc2ccc(N(C)C)cc2n1 below 4?
Return: false

Enquiry: Would you kindly verify if selectivity ratio of Cc1cn([C@@H]2O[C@H](CO)[C@@H](O)[C@@H]2O)c(=O)[nH]c1=O is strictly less than 4?
Return: false

Enquiry: Regarding Nc1nc2c(ncn2COCCO)c(=O)[nH]1 , kindly confirm whether its selectivity ratio is beneath 4.
Return: false

Enquiry: Determine whether this compound shows selectivity ratio lower than 4 (ties excluded): Cc1cc(N(C)C)nc2cc(N)ccc12
Return: true

Enquiry: Does this compound meet the criterion selectivity ratio < 4? CC(=O)Nc1ccc2c(C)cc(N(C)C)nc2c1
Return: false

Enquiry: Dear reviewer, please state whether Cc1cc(N)nc2cc(N)ccc12 has selectivity ratio strictly beneath 4.
Return: false

Enquiry: Identify whether the compound CCC(=O)C(CCCCCCOc1ccc(OC)cc1Cl)C(=O)CC records selectivity ratio below 4.
Return: false
